experiment: Tmax in CD Sprague-Dawley rat at 2.9 mg/kg, po; assay type: ADME, organism-based; parameters: dose 2.9 mg/kg, route oral; conditions: in vivo
measurementName: Tmax (h)

> print(dat)
                               samplesmiles  unitofmeasurement  valuereported
1  Cl.O=C(c1ccc(F)cc1)N1CCN(c2ccc(OC3CCN(C4CCC4)CC3)cc2)C(=O)C1                  h              2

====

assay: Cmax in Beagle dog at 2.0 mg/kg, po; assay type: ADME, organism-based, Canis lupus familiaris; set-up: dose 2 mg/kg, route oral; conditions: in vivo
measurementName: Cmax (ng/mL)

> print(dat)
                               samplesmiles  measurementname  unitofmeasurement  valuereported
1  N#Cc1ccc(C(=O)N2CCN(c3ccc(OC4CCN(C5CCC5)CC4)cc3)C(=O)C2)cc1.O=CO             Cmax              ng/mL            294
2  C[C@@H]1CCCN1CCCOc1ccc(N2CCN(C(=O)c3ccc(F)cc3F)CC2=O)cc1.O=CO             Cmax              ng/mL            734
3  O=C(c1ccc(F)cc1)N1CCN(c2ccc(OCCCN3CCCCC3)cc2)C(=O)C1.O=CO             Cmax              ng/mL            400
